FYI, the data here is from patent US12377083B2.

Give half-life for every item shown.
- Method Summary: In vitro metabolic stability, human liver microsomes
- Format: in vitro ADME
- Conditions Used: 1 mg/mL liver microsome protein, 37° C., read-out: Metabolism in human liver microsome T½ min
- Procedure: The in vitro metabolic stability of the compounds disclosed herein was determined through incubation of liver microsomes of various species. A proper amount of test compound was added into a liver microsome reaction system (1 mg/mL liver microsome protein, 25 U/mL glucose-6 phosphate dehydrogenase, 1 mM NADP, 6 mM D-glucose 6-phosphate and 5 mM MgCl2), and then the mixture was incubated in a water bath kettle at 37° C. to start reaction. […]
All answers are understood in h, so give the number only.

query: Which half-life is reported for this compound? CN(C(=O)OCc1c(-c2ccc(O[C@H]3CCC[C@H](C(=O)O)C3)c(CF)n2)cnn1C)C1CCCC1 (racemic) [Compound 89]
result: 7.48

query: Which half-life is reported for this compound? Cc1nc(-c2cnn(C)c2COC(=O)N(C)C2CCCC2)ccc1O[C@H]1CCC[C@H](C(=O)O)C1 (racemic) [Compound 16]
result: 10.3

query: Which half-life is reported for this compound? CN(C(=O)OCc1c(-c2ccc(O[C@H]3CCC[C@H](C(=O)O)C3)c(C(F)(F)F)n2)cnn1C)C1CCCC1 (racemic) [Compound 13]
result: 1.15

query: Which half-life is reported for this compound? Cc1noc(-c2ccc(O[C@H]3CCC[C@H](C(=O)O)C3)cc2)c1COC(=O)N(C)C1CCCC1 (racemic) [Compound 4]
result: 2.19

query: Which half-life is reported for this compound? Cc1onc(-c2ccc(O[C@H]3CCC[C@H](C(=O)O)C3)cc2)c1COC(=O)N(C)C1CCCC1 (racemic) [Compound 7]
result: 1.81

query: Which half-life is reported for this compound? CN(C(=O)OCc1c(-c2ccc(O[C@H]3CCC[C@H](C(=O)O)C3)c(C(F)F)n2)cnn1C)C1CCCC1 (racemic) [Compound 63]
result: 6.43

query: Which half-life is reported for this compound? Cc1nc(-c2cnn(C)c2COC(=O)N(C)C2CCCC2)cnc1O[C@H]1CCC[C@H](C(=O)O)C1 (racemic) [Compound 66]
result: 8.21

====

- Method Summary: In vitro metabolic stability, mouse liver microsomes
- Format: in vitro ADME
- Conditions Used: 1 mg/mL liver microsome protein, 37° C., read-out: Metabolism in mouse liver microsome T½ min
- Experimental: The in vitro metabolic stability of the compounds disclosed herein was determined through incubation of liver microsomes of various species. A proper amount of test compound was added into a liver microsome reaction system (1 mg/mL liver microsome protein, 25 U/mL glucose-6 phosphate dehydrogenase, 1 mM NADP, 6 mM D-glucose 6-phosphate and 5 mM MgCl2), and then the mixture was incubated in a water bath kettle at 37° C. to start reaction. […]
Give half-life for every item shown.
All answers are understood in h, so give the number only.

query: Which half-life is reported for this compound? CN(C(=O)OCc1c(-c2ccc(O[C@H]3CCC[C@H](C(=O)O)C3)c(CF)n2)cnn1C)C1CCCC1 (racemic)
result: 61.2

query: Which half-life is reported for this compound? CN(C(=O)OCc1c(-c2ccc(O[C@H]3CCC[C@H](C(=O)O)C3)c(C(F)(F)F)n2)cnn1C)C1CCCC1 (racemic)
result: 3.55

query: Which half-life is reported for this compound? Cc1onc(-c2ccc(O[C@H]3CCC[C@H](C(=O)O)C3)cc2)c1COC(=O)N(C)C1CCCC1 (racemic)
result: 2.48

query: Which half-life is reported for this compound? Cc1noc(-c2ccc(O[C@H]3CCC[C@H](C(=O)O)C3)cc2)c1COC(=O)N(C)C1CCCC1 (racemic)
result: 2.79

query: Which half-life is reported for this compound? Cc1nc(-c2cnn(C)c2COC(=O)N(C)C2CCCC2)cnc1O[C@H]1CCC[C@H](C(=O)O)C1 (racemic)
result: 11.7

query: Which half-life is reported for this compound? Cc1nc(-c2onc(C)c2COC(=O)N(C)C2CCCC2)ccc1O[C@H]1CCC[C@H](C(=O)O)C1 (racemic)
result: 5.66

query: Which half-life is reported for this compound? CN(C(=O)OCc1c(-c2ccc(O[C@H]3CCC[C@H](C(=O)O)C3)c(C(F)F)n2)cnn1C)C1CCCC1 (racemic)
result: 8.96
